- system-tested: T1, biotinylated recombinant mouse IL-12Rβ2 (mouse, UniProt P97378 24-637, random biotinylated)
- T1 construct: Recombinant protein produced in-house, biotinylated; also called mIL-12RB2; mouse IL-12RB2
- T1 sequence: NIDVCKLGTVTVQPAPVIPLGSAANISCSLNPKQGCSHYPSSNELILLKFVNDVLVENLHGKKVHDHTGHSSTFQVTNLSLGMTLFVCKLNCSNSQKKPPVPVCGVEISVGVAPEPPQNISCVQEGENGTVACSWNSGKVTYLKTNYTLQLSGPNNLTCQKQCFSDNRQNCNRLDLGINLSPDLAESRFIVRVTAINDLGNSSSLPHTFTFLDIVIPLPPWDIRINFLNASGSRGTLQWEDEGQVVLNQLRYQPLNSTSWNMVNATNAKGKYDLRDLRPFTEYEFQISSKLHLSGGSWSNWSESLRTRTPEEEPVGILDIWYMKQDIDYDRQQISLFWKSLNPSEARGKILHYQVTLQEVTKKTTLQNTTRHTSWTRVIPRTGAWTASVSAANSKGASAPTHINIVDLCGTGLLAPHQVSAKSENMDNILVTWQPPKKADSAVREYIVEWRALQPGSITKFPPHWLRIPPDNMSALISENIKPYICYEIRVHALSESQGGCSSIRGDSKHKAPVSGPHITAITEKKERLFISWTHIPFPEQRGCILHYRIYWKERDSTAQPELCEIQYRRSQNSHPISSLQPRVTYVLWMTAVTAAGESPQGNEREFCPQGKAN
- assay-name: BLI (Octet), periplasmic extract on biotinylated mIL-12Rβ2 on streptavidin tips, 1:1 model
property: koff

Some solved cases for reference:
| binder | observed |
| --- | --- |
| anti-IL-12Rβ2 VHH clone 21063 (VHH, not shown: small tags and cut ends, tested as periplasmic extract; also called 3CRHM133) VHH: QVQLQESGGGSVQAGGSLRLSCAVSGRPVSDYAMGWFRQAPGKEREFVAALSASDTTVYPNSVKGRITISRDNAKNAVDLQMNALKPEDTAVYYCAMGPIGTFQGLARQNEYHYWGQGTQVTVSS | 0.00667 s⁻¹ |
| anti-IL-12Rβ2 VHH clone 21064 (VHH, not shown: small tags and cut ends, tested as periplasmic extract; also called 3CRHM200) VHH: QVQLQESGGGLVQPGGSLRLSCAASGRTFSNYAMAWFRQAPGTEREFVAGLSGSGGDTAFYDNSVMGRFTISRDSAKNTMWLQINNLKPEDTAVYYCAAATHVVVSYGLVRRRGTYDYWGQGTQVTVSS | 0.00546 s⁻¹ |
| anti-IL-12Rβ2 VHH clone 21057 (VHH, not shown: small tags and cut ends, tested as periplasmic extract; also called 3CRHM35) VHH: QVQLQESGGGLVQAGGSLRLSCAASGRTFSNYAMAWFRQAPGTEREFVAGLSGSGGDTAFYDNSVMGRFTISRDSAKNTMWLQINNLKPEDTAVYYCAAATHVVVNYGLVRRRGTYDYWGQGTQVTVSS | 0.00535 s⁻¹ |

Now for the binder whose koff we want.
Field koff (entry anti-IL-12Rβ2 VHH clone 21054 (VHH, not shown: small tags and cut ends, tested as periplasmic extract; also called 3CRHM18) VHH: QVQLQESGGGLVQDGGSLRLSCAASGRTFSNYAMAWFRQAPGTEREFVAGLSGSGGDTAFYDNSVMGRFTISRDSAKNTMWLQINNLKPEDTAVYYCAAATHVVVSYGLVRKRGTYDYWGQGTQVTVSS ) reads 0.00618 s⁻¹
